# assay-procedure: yeast display, Sf9 membrane polyspecificity reagent, FACS + sequencing; frameworks hold sequencing errors
measure: polyreactivity (PSR sort gate)

Illustrative cases are given below, each with its answer.
input_sequence=QVQIVESGGGLVQAGGSLRLSCAASGSIFFIYGMGWYRQAPVKERELVARIRVSGDSTYYADSVKGRFTISRDNAKNTVYVQMNSLKPVDTAVYYCNARSLWGYGYWGQCTQVTVSS value_observed="high polyreactivity"
input_sequence=QVQLVESGGGLVQAGGSLRLSCAASGLTFVPNAMRWYRQAPGKERELVAAISNNGGRTYYADSVKGRFTISRDNAKNTVYLQMNSLKPEDTAVYYCAKSLSPGERHSYDYRGQGTQVTVSS value_observed="high polyreactivity"
input_sequence=QVQLVESGGGLVQAGGSLRLSCAASGSIFRYNAMGWYRQAPGKERELVAAITSGDSTYYADSVKGRFTISRDNAKNTVYLQMNSLKPEDTAVYYCAADLRYIYWSYYYWGQGTQVTVSS value_observed="low polyreactivity"
input_sequence=QVQLVESGGGLVQAGGSLRLSCAASGFTFVYYAMGWYRQAPGKERELVATITRSGDSTYYADSVKGRFTISRDNAKNTVYLQMNSLKPEDTAVYYCAAQPGTASYAGDGDSWGQGTQVTVSS value_observed="low polyreactivity"

Hi, could you look up polyreactivity (PSR sort gate) for each item in my list?
1. QVQLVESGGGLVQAGGSLRLSCAASGSISGVYAMGWYRQAPGKERELVAAISRSGGSTYYADSVKGRFTISRDNAKNTVYLQMNSLKPEDTAVYYCAAEYTYYSYGGNYDYWGQGTQVSVSS
2. QVQLVESGGGLVQAGGSLRLSCAASGSIYYYTMGWYRQAPGKERELVAAISRSGTRTYYADSVKGRFTISRDNAMYTVYLQMNSLKPEDTAGYYCAARILPPGDNVDDDYWGQGTQVTVSS
3. QVQLVESGGGLVQAGGSLRLSCAASGSTFRYNAMGWYRQAPGKERELFAAISFSGGSTYYADSVKGRFTISRDNAKNTVYLQMNSLKPEDTAVYYCAARWSSWPSYLAVPRLYYWGQGTQVTVSS

Reply |
low polyreactivity
high polyreactivity
high polyreactivity

###

# assay-procedure: yeast display, Sf9 membrane polyspecificity reagent, FACS + sequencing; frameworks hold sequencing errors
measure: polyreactivity (PSR sort gate)

Illustrative cases are given below, each with its answer.
input_sequence=QVQLVESGGGLVQAGGSLRLSCAASGRTFRYNTMGCYRQAPGKERELVAAITKGAASTYYADSVKGRFTISRDNAKNTVYLQMNSLKPEDTAVYYCNAVYSRIVTQKYWGQGTQVTVSS value_observed="high polyreactivity"
input_sequence=QVQLVESGGGLVQAGGSLRLSCAASGGTFYRSAMGWYRQAPGKERELVAAISTGSSTYYADSVKGRFTISRDNAKNTVYLQINSQKPEDTAVNYCAARYWERYRSFNYWGQGTQVTVSS value_observed="high polyreactivity"
input_sequence=QVQLVESGGGLVQAGGSLRLSCAASGFAFSYYAMGWYRQATGKEREFVASIDWSGGSTYYADSVKGRFTISRDNAKNTVYLQLNSLKPEDTAVYYCAAELDYFPGYDYWGQGTQVTVSS value_observed="low polyreactivity"
input_sequence=QVQLVESGGGLVQAGGSLRLSCAASGLIFDGYAMGWYRQAPGKERELVAAISRSGSRTYYADSVKGRFTISRDNAKNTVYLQMNSLKPEDTAVYYCAADAYNYPELDYWGQGTQVTVSS value_observed="high polyreactivity"
input_sequence=QFQLVESGGGLVQAGGSLRLSCAASGFIFYKYAMGWYRQAPGKERELVAAISSIGGRTYYADSVKGRFTISRDNAKNTVYLQMNSLKPEDTAVYYCAARYRRTIPWFAPGNDHKYWGQGTQVTVSS value_observed="high polyreactivity"

Hi, could you look up polyreactivity (PSR sort gate) for each item in my list?
1. QVQLVESGGVLVQAGGSLRLSCAASGRIFRANTMGWYRQAPGKEMELVANISKNGGRTYYADSVKGRFTISRDNAKNTVYLQMNSLKPEDTAVYYFNAEWRGWRFLEYGSYIYQSGYWGQGTQVTVSS
2. QVQLEESGGGFVQAGGSLRLSCAASGYIFFPHAMGWYRQATWKERELVAAINSRGASTYYADSVKGRFTISRDNAKNTVSLQMNSLKPVDTAVYYCAKGSGLHIYHYYGVPYDYWGQGTQVTVSS
3. QVQLVESGGGLVQAGGSLRLSCAAYGRIFRGYAMGRYRQAPGKEREFVAAITKNGGSTYYADSVKGRFTISRDNAKNTVYLQMNSLKPEDTAVYYCAVRALDPYTGKSDYWGQGTQVTVSS
4. QVQLVESGGGLVQAGGSLRLSCAASGSIFQHYAMGLYRQAPGKERELVAAISYDTTSTYYADSVKGRFTISRDNAKNTVYLQMNSLKPEDTAVYYCNTYPEVYGPFQYDYWGQGTQVTVSS
5. QVHLVESGGGLVQAGGSLRLSCAASGRIFYYNAMGWYRQAPGKERELVAAISSAGSTYYADSVKGRFTLSRDNAKNTVYLQMNSLKPEDTAVYYCNAGKHERMDWGQGTQVTVSS
6. QVQLEESGGGLVQAGGSLRLICAASGRIFGVNAMGWYRQAHGKERELVAVISSGGSTYYADSVKGRFTISRDNAKNTVYLQMNSLKPEDTAVYYCNAVVGSWFPYNLSDYWGEGTQVTVSS

Reply |
1. high polyreactivity
2. low polyreactivity
3. low polyreactivity
4. low polyreactivity
5. high polyreactivity
6. low polyreactivity
